# System: 276233-004-R-J1-PDC KRAS spheroids with HUVEC/MSC, viability
# METHOD NOTES: Anticancer human tumor 276233-004-R-J1-PDC patient-derived colon adenocarcinoma cell line growth inhibition [KRAS2]
# PARTICULARS: second compound 1 µM; first compound 1 µM; stronger effect = lower value
Listed below: viability, T/C values for each entry.
ATTRIBUTE MEASURED: viability, T/C (%)

COMPOUND	ASSAY RESULT
CCN1CCN(Cc2ccc(Nc3ncc(F)c(-c4cc(F)c5nc(C)n(C(C)C)c5c4)n3)nc2)CC1 + C=CC(=O)N1CCN(c2nc(=O)n(-c3c(C)ccnc3C(C)C)c3nc(-c4c(O)cccc4F)c(F)cc23)C(C)C1	101
COc1cc2nccc(Oc3ccc(NC(=O)C4(C(=O)Nc5ccc(F)cc5)CC4)cc3)c2cc1OC + CC1OCC2(CCN(c3cnc(Sc4ccnc(N)c4Cl)c(N)n3)CC2)C1N	75.7
CC1COCCN1c1cc(-c2ccnn2C)c2ccnc(-c3ccn[nH]3)c2n1 (stereo not given) + C=CC(=O)N1CCN(c2nc(=O)n(-c3c(C)ccnc3C(C)C)c3nc(-c4c(O)cccc4F)c(F)cc23)C(C)C1	72.4
CCN1CCN(Cc2ccc(Nc3ncc(F)c(-c4cc(F)c5nc(C)n(C(C)C)c5c4)n3)nc2)CC1 + CNCc1ccccc1-c1csc(C(C)Nc2nc(C)nc3cc(OC)c(OC)cc23)c1	16
COc1cc2nccc(Oc3ccc(NC(=O)C4(C(=O)Nc5ccc(F)cc5)CC4)cc3)c2cc1OC + CNCc1ccccc1-c1csc(C(C)Nc2nc(C)nc3cc(OC)c(OC)cc23)c1	35.6
COC(=O)c1ccc2c(C(=Nc3ccc(N(C)C(=O)CN4CCN(C)CC4)cc3)c3ccccc3)c(O)[nH]c2c1 + C=CC(=O)N1CCN(c2nc(OCC3CCCN3C)nc3c2CCN(c2cccc4cccc(C)c24)C3)CC1CC#N	62.1
O=C(c1cc(Cc2n[nH]c(=O)c3ccccc23)ccc1F)N1CCN(C(=O)C2CC2)CC1 + C=CC(=O)N1CCN(c2nc(=O)n(-c3c(C)ccnc3C(C)C)c3nc(-c4c(O)cccc4F)c(F)cc23)C(C)C1	82.9
COc1cc(Nc2ncc3c(n2)-c2ccc(Cl)cc2C(c2c(F)cccc2OC)=NC3)ccc1C(=O)O + CC1OCC2(CCN(c3cnc(Sc4ccnc(N)c4Cl)c(N)n3)CC2)C1N	74.9
CC1(C)CCC(CN2CCN(c3ccc(C(=O)NS(=O)(=O)c4ccc(NCC5CCOCC5)c([N+](=O)[O-])c4)c(Oc4cnc5[nH]ccc5c4)c3)CC2)=C(c2ccc(Cl)cc2)C1 + CC1OCC2(CCN(c3cnc(Sc4ccnc(N)c4Cl)c(N)n3)CC2)C1N	62.3
CCN1CCN(Cc2ccc(Nc3ncc(F)c(-c4cc(F)c5nc(C)n(C(C)C)c5c4)n3)nc2)CC1 + CC1OCC2(CCN(c3cnc(Sc4ccnc(N)c4Cl)c(N)n3)CC2)C1N	67

----------
# System: 276233-004-R-J1-PDC KRAS spheroids with HUVEC/MSC, viability
# METHOD NOTES: Anticancer human tumor 276233-004-R-J1-PDC cell line growth inhibition [KRAS2];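 note: cells exposed to agents for seven days before viability read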;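 for viability, T/C: 100% = DMSO vehicle control wells and lower values mean fewer viable cells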
# PARTICULARS: second compound 0.316 µM; first compound 0.1 µM; stronger effect = lower value
Listed below: viability, T/C values for each entry.
ATTRIBUTE MEASURED: viability, T/C

MOLECULE	ATTRIBUTE MEASURED	ASSAY RESULT
CN(C)C/C=C/C(=O)Nc1cc2c(Nc3ccc(F)c(Cl)c3)ncnc2cc1O[C@H]1CCOC1 + COc1cc2nc(C)nc(NC(C)c3cc(N)cc(C(F)(F)F)c3)c2cc1OC1CCOC1	viability, T/C	74%
Cn1nccc1Nc1nccc(-c2cc3c(s2)C(C)(C)N(CCN2CCOCC2)C3=O)n1 + C=CC(=O)N1CCN(c2nc(=O)n(-c3c(C)ccnc3C(C)C)c3nc(-c4c(O)cccc4F)c(F)cc23)C(C)C1	viability, T/C	112%
CC1(C)CCC(CN2CCN(c3ccc(C(=O)NS(=O)(=O)c4ccc(NCC5CCOCC5)c([N+](=O)[O-])c4)c(Oc4cnc5[nH]ccc5c4)c3)CC2)=C(c2ccc(Cl)cc2)C1 + C=CC(=O)N1CCN(c2nc(OCC3CCCN3C)nc3c2CCN(c2cccc4cccc(C)c24)C3)CC1CC#N	viability, T/C	89%
CC(C)n1nc(-c2ccc3oc(N)nc3c2)c2c(N)ncnc21 + COc1cc2nc(C)nc(NC(C)c3cc(N)cc(C(F)(F)F)c3)c2cc1OC1CCOC1	viability, T/C	56.5%
CC1(C)CCC(CN2CCN(c3ccc(C(=O)NS(=O)(=O)c4ccc(NCC5CCOCC5)c([N+](=O)[O-])c4)c(Oc4cnc5[nH]ccc5c4)c3)CC2)=C(c2ccc(Cl)cc2)C1 + CNCc1ccccc1-c1csc(C(C)Nc2nc(C)nc3cc(OC)c(OC)cc23)c1	viability, T/C	94.9%
Cn1ncnc1[C@H]1c2n[nH]c(=O)c3cc(F)cc(c23)N[C@@H]1c1ccc(F)cc1 + C=CC(=O)N1CCN(c2nc(=O)n(-c3c(C)ccnc3C(C)C)c3nc(-c4c(O)cccc4F)c(F)cc23)C(C)C1	viability, T/C	92%
O=C(c1cc(Cc2n[nH]c(=O)c3ccccc23)ccc1F)N1CCN(C(=O)C2CC2)CC1 + CNCc1ccccc1-c1csc(C(C)Nc2nc(C)nc3cc(OC)c(OC)cc23)c1	viability, T/C	80.8%
CC1COCCN1c1cc(-c2ccnn2C)c2ccnc(-c3ccn[nH]3)c2n1 (stereo not given) + CC1OCC2(CCN(c3cnc(Sc4ccnc(N)c4Cl)c(N)n3)CC2)C1N	viability, T/C	84.8%
COc1cc2nccc(Oc3ccc(NC(=O)C4(C(=O)Nc5ccc(F)cc5)CC4)cc3)c2cc1OC + COc1cc2nc(C)nc(NC(C)c3cc(N)cc(C(F)(F)F)c3)c2cc1OC1CCOC1	viability, T/C	80.8%
CCNC(=O)CC1N=C(c2ccc(Cl)cc2)c2cc(OC)ccc2-n2c(C)nnc21 (stereo not given) + C=CC(=O)N1CCN(c2nc(=O)n(-c3c(C)ccnc3C(C)C)c3nc(-c4c(O)cccc4F)c(F)cc23)C(C)C1	viability, T/C	92.8%
COc1cc2nccc(Oc3ccc(NC(=O)C4(C(=O)Nc5ccc(F)cc5)CC4)cc3)c2cc1OC + CNCc1ccccc1-c1csc(C(C)Nc2nc(C)nc3cc(OC)c(OC)cc23)c1	viability, T/C	85%
CC1COCCN1c1cc(-c2ccnn2C)c2ccnc(-c3ccn[nH]3)c2n1 (stereo not given) + C=CC(=O)N1CCN(c2nc(=O)n(-c3c(C)ccnc3C(C)C)c3nc(-c4c(O)cccc4F)c(F)cc23)C(C)C1	viability, T/C	97.1%
CC(C)NCC(C(=O)N1CCN(c2ncnc3c2C(C)CC3O)CC1)c1ccc(Cl)cc1 (stereo not given) + C=CC(=O)N1CCN(c2nc(=O)n(-c3c(C)ccnc3C(C)C)c3nc(-c4c(O)cccc4F)c(F)cc23)C(C)C1	viability, T/C	71.7%
CCNC(=O)CC1N=C(c2ccc(Cl)cc2)c2cc(OC)ccc2-n2c(C)nnc21 (stereo not given) + CNCc1ccccc1-c1csc(C(C)Nc2nc(C)nc3cc(OC)c(OC)cc23)c1	viability, T/C	82.8%
Cn1nccc1Nc1nccc(-c2cc3c(s2)C(C)(C)N(CCN2CCOCC2)C3=O)n1 + CNCc1ccccc1-c1csc(C(C)Nc2nc(C)nc3cc(OC)c(OC)cc23)c1	viability, T/C	89.9%
CC1OCC2(CCN(c3cnc(Sc4ccnc(N)c4Cl)c(N)n3)CC2)C1N (stereo not given) + C=CC(=O)N1CCN(c2nc(=O)n(-c3c(C)ccnc3C(C)C)c3nc(-c4c(O)cccc4F)c(F)cc23)C(C)C1	viability, T/C	103%
CC(=O)OC12COC1CC(O)C1(C)C(=O)C(O)C3=C(C)C(OC(=O)C(O)C(NC(=O)OC(C)(C)C)c4ccccc4)CC(O)(C(OC(=O)c4ccccc4)C21)C3(C)C (stereo not given) + C=CC(=O)N1CCN(c2nc(=O)n(-c3c(C)ccnc3C(C)C)c3nc(-c4c(O)cccc4F)c(F)cc23)C(C)C1	viability, T/C	79.4%
CN(C)C/C=C/C(=O)Nc1cc2c(Nc3ccc(F)c(Cl)c3)ncnc2cc1O[C@H]1CCOC1 + CC1OCC2(CCN(c3cnc(Sc4ccnc(N)c4Cl)c(N)n3)CC2)C1N	viability, T/C	78.1%
O=C(c1cc(Cc2n[nH]c(=O)c3ccccc23)ccc1F)N1CCN(C(=O)C2CC2)CC1 + CC1OCC2(CCN(c3cnc(Sc4ccnc(N)c4Cl)c(N)n3)CC2)C1N	viability, T/C	78.5%
COc1cc(Nc2ncc3c(n2)-c2ccc(Cl)cc2C(c2c(F)cccc2OC)=NC3)ccc1C(=O)O + CC1OCC2(CCN(c3cnc(Sc4ccnc(N)c4Cl)c(N)n3)CC2)C1N	viability, T/C	82.5%

----------
# Tested on: 276233-004-R-J1-PDC KRAS spheroids with HUVEC/MSC, viability
# METHOD NOTES: Anticancer human tumor 276233-004-R-J1-PDC cell line growth inhibition [KRAS2];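 note: cells exposed to agents for seven days before viability read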
# PARTICULARS: curve of first compound; second compound 0.1 µM
Listed below: IC50 values for each entry.

COMPOUND	IC50
CCNC(=O)CC1N=C(c2ccc(Cl)cc2)c2cc(OC)ccc2-n2c(C)nnc21 (stereo not drawn) + COc1cc2nc(C)nc(NC(C)c3cc(N)cc(C(F)(F)F)c3)c2cc1OC1CCOC1	> 10 µM
CN(C)C/C=C/C(=O)Nc1cc2c(Nc3ccc(F)c(Cl)c3)ncnc2cc1O[C@H]1CCOC1 + COc1cc2nc(C)nc(NC(C)c3cc(N)cc(C(F)(F)F)c3)c2cc1OC1CCOC1	> 0.1 µM
CC(C)NCC(C(=O)N1CCN(c2ncnc3c2C(C)CC3O)CC1)c1ccc(Cl)cc1 (stereo not drawn) + C=CC(=O)N1CCN(c2nc(=O)n(-c3c(C)ccnc3C(C)C)c3nc(-c4c(O)cccc4F)c(F)cc23)C(C)C1	> 10 µM
